- testTarget: Cholinesterase (Equus caballus, UniProt P81908)
- Sequence (P81908 whole entry): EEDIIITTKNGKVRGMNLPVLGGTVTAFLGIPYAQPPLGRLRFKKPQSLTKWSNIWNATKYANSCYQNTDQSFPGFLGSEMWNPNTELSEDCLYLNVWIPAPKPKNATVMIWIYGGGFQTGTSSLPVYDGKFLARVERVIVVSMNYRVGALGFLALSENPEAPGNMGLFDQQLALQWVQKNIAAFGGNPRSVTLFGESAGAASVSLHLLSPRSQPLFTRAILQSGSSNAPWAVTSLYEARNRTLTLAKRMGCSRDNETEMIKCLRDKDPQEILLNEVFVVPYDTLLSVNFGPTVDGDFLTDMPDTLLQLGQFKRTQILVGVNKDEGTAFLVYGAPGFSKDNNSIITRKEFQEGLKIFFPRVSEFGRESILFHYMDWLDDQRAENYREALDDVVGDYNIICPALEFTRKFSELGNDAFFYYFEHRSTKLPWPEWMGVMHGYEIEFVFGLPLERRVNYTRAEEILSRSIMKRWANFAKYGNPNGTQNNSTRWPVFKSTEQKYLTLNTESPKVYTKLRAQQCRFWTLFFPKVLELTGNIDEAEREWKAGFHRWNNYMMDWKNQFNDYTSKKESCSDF
- measurementDescription: Inhibition of equine serum BuChE using butylthiocholine iodine as substrate preincubated for 20 mins followed by substrate addition and measured after 20 mins by DTNB reagent based Ellman's method

- sampleSmiles: "O=C(Nc1cc(-c2ccc3c(OCCCNC4CCN(Cc5ccccc5)CC4)cc(=O)oc3c2)ccn1)c1ccccc1"
  IC50: "> 50 µM"
- sampleSmiles: "O=c1cc(OCCCNC2CCN(Cc3ccccc3)CC2)c2ccc(-c3ccncc3)cc2o1"
  IC50: "> 50 µM"
- sampleSmiles: "O=c1cc(OCCCNC2CCN(Cc3ccccc3)CC2)c2ccc(-c3ccc(F)nc3)cc2o1"
  IC50: "> 50 µM"
- sampleSmiles: "O=C(Nc1cc(-c2ccc3c(OCCCNC4CCN(Cc5ccccc5)CC4)cc(=O)oc3c2)ccn1)C1CC1"
  IC50: "> 50 µM"
- sampleSmiles: "CN(Cc1ccccc1)C1CCN(CCCOc2cc(=O)oc3cc(-c4ccc(F)nc4)ccc23)CC1"
  IC50: "> 50 µM"

* * *

- measurementDescription: Cytotoxicity in human SH-SY5Y cells assessed as reduction in cell viability incubated for 48 hrs by MTT assay
- Type: toxicity, cell-based
Binarize IC50 at 48 h at 8 µM; below is yes (1), at or above is no (0).

- sampleSmiles: "O=c1cc(OCCCNC2CCN(Cc3ccccc3)CC2)c2ccc(-c3ccc(F)cc3)cc2o1"
  group: "yes (1)"
- sampleSmiles: "O=c1cc(OCCCN2CCC(NCc3ccc(F)c(F)c3)CC2)c2ccc(-c3cccnc3)cc2o1"
  group: "yes (1)"
- sampleSmiles: "O=c1cc(OCCCNC2CCN(Cc3ccccc3)CC2)c2ccc(-c3ccnc(F)c3)cc2o1"
  group: "yes (1)"
- sampleSmiles: "O=c1cc(OCCCNC2CCN(Cc3ccccc3)CC2)c2ccc(-c3ccncc3)cc2o1"
  group: "no (0)"
- sampleSmiles: "COc1cccc(CNC2CCN(CCCOc3cc(=O)oc4cc(-c5cccnc5)ccc34)CC2)c1"
  group: "no (0)"
- sampleSmiles: "O=c1cc(OCCCN2CCC(NCc3cccc([N+](=O)[O-])c3)CC2)c2ccc(-c3cccnc3)cc2o1"
  group: "no (0)"
- sampleSmiles: "CN(Cc1ccccc1)C1CCN(CCCOc2cc(=O)oc3cc(-c4ccc(F)nc4)ccc23)CC1"
  group: "no (0)"
- sampleSmiles: "O=c1cc(OCCCNC2CCN(Cc3ccccc3)CC2)c2ccc(-c3ccc(F)nc3)cc2o1"
  group: "yes (1)"
- sampleSmiles: "COc1ccc(CNC2CCN(CCCOc3cc(=O)oc4cc(-c5cccnc5)ccc34)CC2)cc1"
  group: "yes (1)"
- sampleSmiles: "CN(Cc1ccccc1)C1CCN(CCCOc2cc(=O)oc3cc(-c4ccc(F)cc4)ccc23)CC1"
  group: "yes (1)"
- sampleSmiles: "O=c1cc(OCCCN2CCOCC2)c2ccc(-c3cccnc3)cc2o1"
  group: "no (0)"
- sampleSmiles: "O=c1cc(OCCCN2CCC(NCc3ccccc3F)CC2)c2ccc(-c3cccnc3)cc2o1"
  group: "no (0)"
- sampleSmiles: "O=c1cc(OCCCN2CCC(NCc3ccccc3)CC2)c2ccc(-c3ccncc3)cc2o1"
  group: "no (0)"

* * *

A set of molecules tested on Acetylcholinesterase (Electrophorus electricus), with measured pIC50:
pIC50: −log10 of the molar value.

- molecule: "CC(C)=CC(O)C/C(C)=C/COc1c2ccoc2cc2oc(=O)ccc12 (stereo unspecified)"
  comparisonSign: "<"
  pIC50: 4.00
- molecule: "O=c1cc(OCCCNC2CCN(Cc3ccccc3)CC2)c2ccc(-c3ccncc3)cc2o1"
  comparisonSign: "="
  pIC50: 5.65
- molecule: "Cc1ccc(CNC2CCN(CCCOc3cc(=O)oc4cc(-c5cccnc5)ccc34)CC2)cc1"
  comparisonSign: "="
  pIC50: 4.85
- molecule: "O=c1cc(OCCCNC2CCN(Cc3ccccc3)CC2)c2ccc(-c3cccnc3)cc2o1"
  comparisonSign: "="
  pIC50: 5.88
- molecule: "O=c1cc(OCCCN2CCC(NCc3cccc([N+](=O)[O-])c3)CC2)c2ccc(-c3cccnc3)cc2o1"
  comparisonSign: "="
  pIC50: 4.44
- molecule: "COc1ccc(CNC2CCN(CCCOc3cc(=O)oc4cc(-c5cccnc5)ccc34)CC2)cc1"
  comparisonSign: "="
  pIC50: 4.94
- molecule: "CN(Cc1ccccc1)C1CCN(CCCOc2cc(=O)oc3cc(-c4ccc(F)cc4)ccc23)CC1"
  comparisonSign: "="
  pIC50: 5.34
- molecule: "O=c1cc(OCCCN2CCC(NCc3ccccc3F)CC2)c2ccc(-c3cccnc3)cc2o1"
  comparisonSign: "="
  pIC50: 4.94
- molecule: "O=C(Nc1cc(-c2ccc3c(OCCCNC4CCN(Cc5ccccc5)CC4)cc(=O)oc3c2)ccn1)C1CC1"
  comparisonSign: "="
  pIC50: 5.17
- molecule: "O=c1cc(OCCCN2CCC(NCc3ccccc3)CC2)c2ccc(-c3cccnc3)cc2o1"
  comparisonSign: "="
  pIC50: 5.03
- molecule: "O=c1cc(OCCCN2CCC(NCc3ccccc3)CC2)c2ccc(-c3ccc(F)nc3)cc2o1"
  comparisonSign: "="
  pIC50: 5.45

* * *

- measurementDescription: Cytotoxicity in human HepG2 cells assessed as reduction in cell viability incubated for 48 hrs by MTT assay
- Assay type: toxicity, cell-based

- sampleSmiles: "O=C(Nc1cc(-c2ccc3c(OCCCNC4CCN(Cc5ccccc5)CC4)cc(=O)oc3c2)ccn1)c1ccccc1"
  comparisonSign: "="
  IC50 at 48 h (µM): 1.91
- sampleSmiles: "O=c1cc(OCCCNC2CCN(Cc3ccccc3)CC2)c2ccc(-c3ccc(F)nc3)cc2o1"
  comparisonSign: "="
  IC50 at 48 h (µM): 3.93
- sampleSmiles: "O=C(Nc1cc(-c2ccc3c(OCCCN4CCC(NCc5ccccc5)CC4)cc(=O)oc3c2)ccn1)C1CC1"
  comparisonSign: "="
  IC50 at 48 h (µM): 3.34
- sampleSmiles: "O=c1cc(OCCCN2CCC(CNCc3ccccc3F)CC2)c2ccc(-c3cccnc3)cc2o1"
  comparisonSign: "="
  IC50 at 48 h (µM): 4.26
- sampleSmiles: "O=c1cc(OCCCN2CCC(NCc3cccc(F)c3)CC2)c2ccc(-c3cccnc3)cc2o1"
  comparisonSign: "="
  IC50 at 48 h (µM): 14.6
- sampleSmiles: "O=c1cc(OCCCN2CCC(NCc3ccccc3)CC2)c2ccc(Br)cc2o1"
  comparisonSign: "="
  IC50 at 48 h (µM): 11.8
- sampleSmiles: "O=c1cc(OCCCN2CCC(NCc3cccc([N+](=O)[O-])c3)CC2)c2ccc(-c3cccnc3)cc2o1"
  comparisonSign: "="
  IC50 at 48 h (µM): 9.29
- sampleSmiles: "O=c1cc(OCCCNC2CCN(Cc3ccccc3)CC2)c2ccc(-c3ccc(F)cc3)cc2o1"
  comparisonSign: "="
  IC50 at 48 h (µM): 9.14
- sampleSmiles: "O=c1cc(OCCCNC2CCN(Cc3ccccc3)CC2)c2ccc(-c3cccnc3)cc2o1"
  comparisonSign: "="
  IC50 at 48 h (µM): 10.2
- sampleSmiles: "COc1ccc(CNC2CCN(CCCOc3cc(=O)oc4cc(-c5cccnc5)ccc34)CC2)cc1"
  comparisonSign: "="
  IC50 at 48 h (µM): 9.12
- sampleSmiles: "O=c1cc(OCCCN2CCC(NCc3ccc(F)cc3)CC2)c2ccc(-c3cccnc3)cc2o1"
  comparisonSign: ">"
  IC50 at 48 h (µM): 20
- sampleSmiles: "O=c1cc(OCCCN2CCC(NCc3ccccc3)CC2)c2ccc(-c3cccnc3)cc2o1"
  comparisonSign: ">"
  IC50 at 48 h (µM): 20

* * *

# Ratio IC50 per record follows
- measurementDescription: Selectivity index, ratio of IC50 for inhibition of equine serum BuChE to IC50 for inhibition of electric eel AChE

- sampleSmiles: "CN(Cc1ccccc1)C1CCN(CCCOc2cc(=O)oc3cc(-c4ccc(F)nc4)ccc23)CC1"
  Ratio IC50: "> 12.3"
- sampleSmiles: "O=c1cc(OCCCNC2CCN(Cc3ccccc3)CC2)c2ccc(-c3ccnc(F)c3)cc2o1"
  Ratio IC50: "> 23.4"
- sampleSmiles: "O=C(Nc1cc(-c2ccc3c(OCCCNC4CCN(Cc5ccccc5)CC4)cc(=O)oc3c2)ccn1)C1CC1"
  Ratio IC50: "> 7.41"
- sampleSmiles: "COc1cccc(CNC2CCN(CCCOc3cc(=O)oc4cc(-c5cccnc5)ccc34)CC2)c1"
  Ratio IC50: "> 4.03"
- sampleSmiles: "N#Cc1cccc(CNC2CCN(CCCOc3cc(=O)oc4cc(-c5cccnc5)ccc34)CC2)c1"
  Ratio IC50: "> 6.87"
- sampleSmiles: "O=C(Nc1cc(-c2ccc3c(OCCCNC4CCN(Cc5ccccc5)CC4)cc(=O)oc3c2)ccn1)c1ccccc1"
  Ratio IC50: "> 3.7"
- sampleSmiles: "O=c1cc(OCCCNC2CCN(Cc3ccccc3)CC2)c2ccc(-c3ccc(F)cc3)cc2o1"
  Ratio IC50: "> 1.46"
- sampleSmiles: "O=c1cc(OCCCNC2CCN(Cc3ccccc3)CC2)c2ccc(-c3ccncc3)cc2o1"
  Ratio IC50: "> 22.3"
- sampleSmiles: "O=c1cc(OCCCN2CCOCC2)c2ccc(-c3cccnc3)cc2o1"
  Ratio IC50: "> 3.19"
